These data points were gathered from ChEMBL document CHEMBL3817788.

- target-under-test: Cholinesterase (Equus caballus, UniProt P81908)
- Sequence (P81908 whole entry): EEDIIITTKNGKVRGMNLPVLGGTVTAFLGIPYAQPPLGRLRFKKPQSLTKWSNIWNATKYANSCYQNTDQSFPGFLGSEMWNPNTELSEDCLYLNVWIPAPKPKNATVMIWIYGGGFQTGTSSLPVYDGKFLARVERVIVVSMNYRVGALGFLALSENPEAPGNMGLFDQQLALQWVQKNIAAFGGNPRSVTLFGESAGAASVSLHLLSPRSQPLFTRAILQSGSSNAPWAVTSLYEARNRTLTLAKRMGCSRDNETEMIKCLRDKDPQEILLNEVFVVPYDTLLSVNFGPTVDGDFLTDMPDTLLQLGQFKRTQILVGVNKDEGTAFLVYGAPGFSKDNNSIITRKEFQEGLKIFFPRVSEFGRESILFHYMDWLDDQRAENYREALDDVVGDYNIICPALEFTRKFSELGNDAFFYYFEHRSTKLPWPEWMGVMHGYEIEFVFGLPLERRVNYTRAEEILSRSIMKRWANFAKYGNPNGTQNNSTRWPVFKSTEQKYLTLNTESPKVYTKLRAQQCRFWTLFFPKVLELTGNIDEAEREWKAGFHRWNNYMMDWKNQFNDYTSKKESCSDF
- protocol-details: Mixed inhibition of equine serum BChE using S-butyrylthiocholine chloride as substrate incubated for 30 mins by Lineweaver-Burk plot analysis
pKi values by entry
Schema: pKi number; meaning minus log10 of the concentration expressed in molar units.

{"columns": ["smiles-entry", "target-under-test", "value-kind", "reported-result"],
 "data": [
  ["O=C(CCCCCCCCc1ccc(O)c(O)c1)c1c(O)cccc1O", "Cholinesterase (Equus caballus, UniProt P81908)", "pKi", 4.94]
]}

Moving on to another compound below.
Quick one: give measured pKi for O=C(CCCCCCCCc1ccc(O)cc1)c1c(O)cccc1O
6.25

====

- Test system: Acetylcholinesterase
- protocol-details: Inhibition of AChE (unknown origin) at 100 ug/ml using acetylthiocholine iodide as substrate incubated for 30 mins by Ellman's microplate assay
- condition-notes: Homo sapiens
Each entry below carries its reported inhibition.
Value expressed in %; do not type the unit.

{"columns": ["compound", "output-unit", "inhibition"],
 "data": [
  ["O=C(CCCCCCCCc1ccc(O)c(O)c1)c1c(O)ccc(C(CCCCCCCCc2ccc(O)c(O)c2)c2c(O)cccc2O)c1O (configuration not stated)", "%", 75.4],
  ["O=C(O)CCCCCCCCc1ccc(O)cc1", "%", 45.1],
  ["O=C(CCCCCCCCc1ccccc1)c1c(O)cccc1O", "%", 97.4],
  ["O=C(CCCCCCCCc1ccc(O)c(O)c1)c1c(O)ccc(C(CCCCCCCCc2ccc(O)cc2)c2c(O)cccc2O)c1O (configuration not stated)", "%", 91.5],
  ["O=C(CCCCCCCCc1ccc(O)cc1)c1c(O)cccc1O", "%", 95.9]
]}

Given the compound O=C(CCCCCCCCc1ccc(O)cc1)c1c(O)cc(O)cc1O , write its reported inhibition.
99.4

Give the reported value of inhibition for this record: O=C(CCCCCCCCc1ccc(O)c(O)c1)c1c(O)cccc1O
97.1

====

- protocol-details: Inhibition of Saccharomyces cerevisiae alpha-glucosidase using p-nitrophenyl-alpha-D-glucopyranoside as substrate preincubated for 10 mins followed by substrate addition measured after 10 mins
value-kind: pIC50
# pIC50: negative log10 of molar concentration; output just the value

{"columns": ["compound", "value-kind", "reported-result"],
 "data": [
  ["O=C1CC(CCCCCCc2ccc(O)cc2)Oc2cccc(O)c21 (configuration not stated)", "pIC50", 3.45]
]}

Annotate the compound O=C(CCCCCCCCc1cc(O)c(O)cc1-c1ccc(O)c(C(=O)CCCCCCCCc2ccccc2)c1O)c1c(O)cccc1O with its measured pIC50.
5.30

====

- protocol-details: Selectivity index, ratio of IC50 for AChE (unknown origin) to IC50 for equine serum BChE
Hi, to clarify the labels: yes covers Ratio IC50 from 1 upward, no covers anything below 1.

Before answering, review these 2 worked examples.
{"columns": ["compound", "class-name"],
 "data": [
  ["O=C(CCCCCCCCc1ccccc1)c1c(O)cccc1O", "no"],
  ["O=C(CCCCCCCCc1ccc(O)c(O)c1)c1c(O)ccc(C(CCCCCCCCc2ccc(O)cc2)c2c(O)cccc2O)c1O (stereo unspecified)", "yes"]
]}

Test whether the compound O=C(CCCCCCCCc1ccc(O)cc1)c1c(O)cccc1O records Ratio IC50 of 1 or higher.
yes

Would you say O=C(CCCCCCCCc1ccc(O)cc1)c1c(O)cc(O)cc1O shows Ratio IC50 at minimum 1?
no

Quick check: does O=C(CCCCCCCCc1ccc(O)c(O)c1)c1c(O)ccc(C(CCCCCCCCc2ccc(O)c(O)c2)c2c(O)cccc2O)c1O (stereo unspecified) have Ratio IC50 greater than or equal to 1?
yes

Is the recorded value of Ratio IC50 equal to or greater than 1 for this compound? O=C(CCCCCCCCc1ccc(O)c(O)c1)c1c(O)cccc1O
no
